Entries and their measured AUC(0-inf) follow.
ASSAY_OVERVIEW: Oral bioavailability in mice, Method A
Type: in vivo
CONDITIONS: male, mouse, plasma, CD-1 mice, 10 mg/kg po, read-out: AUC0-inf (po) (converted)
Counter-ions that a name gives are not always drawn.
Reply with just the number (in ng·h/mL).

These solved cases illustrate the format of a correct answer.
> print(dat)
                                   compound  measured.attribute  reported
1  CNC1(c2ccccc2)CCCCC1=O (racemic) [Compound 14rac, hydrochloride]          AUC(0-inf)       920
2  CNC1(c2ccccc2OC)CCCCC1=O (racemic) [Compound 4rac]          AUC(0-inf)       850
3  CN[C@@]1(c2ccccc2)CCCCC1=O [Compound 14R]          AUC(0-inf)      1410
4  CNC1(c2ccccc2F)CCCCC1=O (racemic) [Compound 35rac]          AUC(0-inf)       363
5  CCNC1(c2cccc(OC)c2)CCCCC1=O (racemic) [Compound 2rac]          AUC(0-inf)      62.8

Turning now to a further record.
Problem: Which measured AUC(0-inf) value corresponds to CN[C@]1(c2ccccc2)CCCCC1=O [Compound 14S] ?
Solution: 993

====

Entries and their measured inhibition at 10 µM follow.
MEASUREMENT_TARGET: vesicular monoamine transporter 2 (VMAT2) (Homo sapiens)
Construct: expressed in transfected cells
Sequence (Q05940 whole entry, species assumed): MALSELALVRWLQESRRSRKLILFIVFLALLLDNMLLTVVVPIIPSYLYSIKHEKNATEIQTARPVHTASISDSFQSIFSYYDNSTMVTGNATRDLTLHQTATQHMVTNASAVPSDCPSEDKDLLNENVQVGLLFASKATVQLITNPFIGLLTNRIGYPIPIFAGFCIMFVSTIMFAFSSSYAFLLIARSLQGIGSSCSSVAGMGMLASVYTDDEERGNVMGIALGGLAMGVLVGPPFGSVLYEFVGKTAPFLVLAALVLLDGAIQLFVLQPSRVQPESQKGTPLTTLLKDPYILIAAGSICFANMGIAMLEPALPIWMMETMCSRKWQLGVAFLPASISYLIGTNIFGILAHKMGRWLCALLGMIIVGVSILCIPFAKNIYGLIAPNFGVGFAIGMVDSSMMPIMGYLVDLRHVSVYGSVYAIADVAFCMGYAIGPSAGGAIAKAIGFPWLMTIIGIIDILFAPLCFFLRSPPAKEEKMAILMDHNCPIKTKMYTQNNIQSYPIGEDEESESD
ASSAY_OVERVIEW: Fluorescent substrate uptake inhibition, VMAT2
Format: cell-based
CONDITIONS: 10 μM, transfected cells
Reply with just the number (in %).

Problem: Which measured inhibition at 10 µM value corresponds to CC(C)N[C@@]1(c2ccccc2)CCCCC1=O [Compound 28R] ?
Solution: -11.4

Problem: Which measured inhibition at 10 µM value corresponds to COCCN[C@]1(c2ccccc2)CCCCC1=O [Compound 29S] ?
Solution: -10.5

Problem: Which measured inhibition at 10 µM value corresponds to O=C1CCCC[C@@]1(c1ccccc1)N1CCCCC1 [Compound 26S] ?
Solution: 22.9

Problem: Which measured inhibition at 10 µM value corresponds to CN[C@@]1(c2cccc(F)c2)CCCCC1=O [Compound 19R] ?
Solution: 11

Problem: Which measured inhibition at 10 µM value corresponds to [2H]C([2H])([2H])N[C@]1(c2ccccc2)CCCCC1=O [Compound 88S] ?
Solution: -6

Problem: Which measured inhibition at 10 µM value corresponds to Cc1ccccc1[C@@]1(N)CCCCC1=O [Compound 114S, (S)-2-amino-2-(o-tolyl)cyclohexan-1-one] ?
Solution: -15.9

Problem: Which measured inhibition at 10 µM value corresponds to O=C1CCCC[C@]1(c1ccccc1)N1CCCCC1 [Compound 26R] ?
Solution: -12.3

Problem: Which measured inhibition at 10 µM value corresponds to Cc1cccc(C2(N)CCCCC2=O)c1 (racemic) ?
Solution: 36.6

====

Entries and their measured inhibition at 10 µM follow.
MEASUREMENT_TARGET: serotonin transporter (SERT) (Homo sapiens, UniProt P31645)
Construct: expressed in transfected cells; host or cells: HEK293
Sequence (P31645 whole entry, species assumed): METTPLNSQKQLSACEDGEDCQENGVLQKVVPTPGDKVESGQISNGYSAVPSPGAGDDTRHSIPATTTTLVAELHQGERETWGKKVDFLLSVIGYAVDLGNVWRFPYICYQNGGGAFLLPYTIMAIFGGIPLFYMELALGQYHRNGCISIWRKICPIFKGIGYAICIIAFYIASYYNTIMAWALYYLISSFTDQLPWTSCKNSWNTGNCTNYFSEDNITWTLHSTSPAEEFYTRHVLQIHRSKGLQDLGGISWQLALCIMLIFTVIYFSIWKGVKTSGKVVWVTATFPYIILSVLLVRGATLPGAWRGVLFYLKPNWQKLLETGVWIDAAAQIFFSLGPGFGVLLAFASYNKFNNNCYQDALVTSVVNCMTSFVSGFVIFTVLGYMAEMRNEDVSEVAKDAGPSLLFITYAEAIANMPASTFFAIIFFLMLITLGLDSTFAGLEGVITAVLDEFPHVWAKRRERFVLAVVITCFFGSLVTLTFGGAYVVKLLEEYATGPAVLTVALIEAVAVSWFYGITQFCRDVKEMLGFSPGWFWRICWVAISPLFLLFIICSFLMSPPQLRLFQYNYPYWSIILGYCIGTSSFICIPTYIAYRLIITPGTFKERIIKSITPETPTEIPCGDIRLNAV
ASSAY_OVERVIEW: Fluorescent substrate uptake inhibition, SERT
Assay type: cell-based
CONDITIONS: 10 μM, HEK293 cells expressing SERT
Reply with just the number (in %).

> print(dat)
                                   molecule   measured.attribute  reported
1  CN[C@@]1(c2ccccc2C)CCCCC1=O [Compound 38R]  inhibition at 10 µM      41.5
2  O=C1CCCC[C@]1(NCCO)c1ccccc1 [Compound 30S]  inhibition at 10 µM      51.9
3  CNC1(c2cccc(C)c2)CCCCC1=O (racemic) [Compound 23rac]  inhibition at 10 µM        -1
4  CC1CN(C2(c3ccccc3)CCCCC2=O)C1 (racemic) [Compound 129rac]  inhibition at 10 µM        28
5  COCCN[C@]1(c2ccccc2)CCCCC1=O [Compound 29S]  inhibition at 10 µM     -12.9

Problem: Which measured inhibition at 10 µM value corresponds to O=C1CCCC[C@]1(c1ccccc1)N1CCC1 [Compound 84R] ?
Solution: 75.2

Problem: Which measured inhibition at 10 µM value corresponds to Cc1ccccc1[C@@]1(N)CCCCC1=O [Compound 114S, (S)-2-amino-2-(o-tolyl)cyclohexan-1-one] ?
Solution: -4

Problem: Which measured inhibition at 10 µM value corresponds to CC(C)N[C@]1(c2ccccc2)CCCCC1=O [Compound 28S] ?
Solution: 22

Problem: Which measured inhibition at 10 µM value corresponds to O=C1CCCC[C@@]1(c1ccccc1)N1CCOCC1 [Compound 31S] ?
Solution: -7.9

Problem: Which measured inhibition at 10 µM value corresponds to CC(C)N[C@@]1(c2ccccc2)CCCCC1=O [Compound 28R] ?
Solution: 37.2

====

MEASUREMENT_TARGET: UniProtKB P31645
ASSAY_OVERVIEW: Fluorescent substrate uptake inhibition, SERT
pIC50: −log10 of the molar value.
pIC50 vs 5: at or above is rule met, below is rule not met.

As a guide, the following entries are already answered.
> print(dat)
                                   compound  measurement.target  category
1  O=C1CCCC[C@]1(c1ccccc1)N1CCCC1 [Compound 27R]    UniProtKB P31645  rule met
2  O=C1CCCC[C@@]1(c1ccccc1)N1CCCC1 [Compound 27S]    UniProtKB P31645  rule met
3  O=C1CCCCC1(c1ccccc1)N1CCCC1 (racemic) [Compound 27rac]    UniProtKB P31645  rule met

Problem: Say whether CN[C@]1(c2ccccc2)CCCCC1=O [Compound 14S] shows pIC50 of 5 or more.
Solution: rule not met

====

ASSAY_OVERVIEW: Oral bioavailability in rats, Method A
Type: in vivo
CONDITIONS: male, rat, plasma, Sprague Dawley rats, 10 mg/kg po, read-out: AUC0-last (po) (converted)
MEASURED_ATTRIBUTE: AUC(0-t) (ng·h/mL)
Reply with just the number (in ng·h/mL).

Problem: Which measured AUC(0-t) value corresponds to CNC1(c2ccccc2Cl)CCCCC1=O (racemic) [rac-ketamine, racemic ketamine, reference compound] ?
Solution: 121

====

MEASUREMENT_TARGET: norepinephrine transporter (NET) (Homo sapiens)
Construct: expressed in transfected cells; host or cells: HEK293
Sequence (P23975 whole entry, species assumed): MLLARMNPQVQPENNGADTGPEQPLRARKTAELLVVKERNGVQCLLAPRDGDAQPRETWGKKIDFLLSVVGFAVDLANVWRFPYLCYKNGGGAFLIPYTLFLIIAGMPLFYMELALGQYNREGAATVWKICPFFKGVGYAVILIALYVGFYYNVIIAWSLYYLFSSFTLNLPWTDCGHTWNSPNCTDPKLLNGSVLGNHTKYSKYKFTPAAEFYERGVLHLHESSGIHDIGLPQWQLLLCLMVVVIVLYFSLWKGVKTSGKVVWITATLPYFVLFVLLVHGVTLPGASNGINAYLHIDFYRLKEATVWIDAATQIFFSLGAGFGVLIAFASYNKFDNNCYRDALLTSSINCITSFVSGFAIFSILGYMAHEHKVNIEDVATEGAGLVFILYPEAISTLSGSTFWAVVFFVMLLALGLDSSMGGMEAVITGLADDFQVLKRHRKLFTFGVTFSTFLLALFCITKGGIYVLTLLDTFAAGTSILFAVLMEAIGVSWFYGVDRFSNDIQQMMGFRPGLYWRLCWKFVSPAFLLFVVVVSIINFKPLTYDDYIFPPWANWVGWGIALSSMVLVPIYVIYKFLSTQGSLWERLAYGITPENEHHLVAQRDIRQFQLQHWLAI
ASSAY_OVERVIEW: Fluorescent substrate uptake inhibition, NET
Type: cell-based
CONDITIONS: 10 μM, HEK293 cells expressing NET
Entries and their measured inhibition at 10 µM follow.
Reply with just the number (in %).

These solved cases illustrate the format of a correct answer.
> print(dat)
                                   molecule   measured.attribute  reported
1  CN[C@]1(c2cccc(F)c2)CCCCC1=O [Compound 19S]  inhibition at 10 µM      10.3
2  Cc1ccccc1[C@@]1(N)CCCCC1=O [Compound 114S, (S)-2-amino-2-(o-tolyl)cyclohexan-1-one]  inhibition at 10 µM      10.4
3  O=C1CCCC[C@@]1(c1ccccc1)N1CCCCC1 [Compound 26S]  inhibition at 10 µM      16.1
4  CN[C@@]1(c2ccccc2C)CCCCC1=O [Compound 38R]  inhibition at 10 µM      20.3

Turning now to a further record.
Problem: Which measured inhibition at 10 µM value corresponds to O=C1CCCC[C@]1(NCCO)c1ccccc1 [Compound 30S] ?
Solution: 22.3

====

ASSAY_OVERVIEW: Oral bioavailability in mice, Method B
Format: in vivo
CONDITIONS: male, mouse; plasma, CD-1 mice, 10 mg/kg iv, Method B; read-out: t1/2 (iv)
Protocol: Animals. Male CD-1 mice were used in these studies Animals were randomly assigned to treatment groups and were fasted for 4 h before oral dosing. Drugs. […] They were then administered intravenously (iv) or orally (po) at a dose of 10 mg/kg (calculated based on freebase) and at a volume of 5 mL/kg body weight. […]
MEASURED_ATTRIBUTE: half-life (h)
Reply with just the number (in h).

These solved cases illustrate the format of a correct answer.
> print(dat)
                                   compound  quantity.unit  reported
1  Cc1ccccc1[C@@]1(N)CCCCC1=O [Compound 114S, (S)-2-amino-2-(o-tolyl)cyclohexan-1-one]              h      1.34
2  CN[C@]1(c2cccc(F)c2)CCCCC1=O [Compound 19S]              h       1.9
3  N[C@]1(c2ccccc2)CCCCC1=O [Compound 11S, (S)-2-amino-2-phenyl-cyclohexan-1-one]              h      1.06
4  N[C@@]1(c2ccccc2)CCCCC1=O [Compound 11R, (R)-2-amino-2-phenyl-cyclohexan-1-one]              h      1.11
5  [2H]C([2H])([2H])N[C@@]1(c2ccccc2)CCCCC1=O [Compound 88R]              h      0.57

Turning now to a further record.
Problem: Which measured half-life value corresponds to Cc1ccccc1[C@]1(N)CCCCC1=O [Compound 114R, (R)-2-amino-2-(o-tolyl)cyclohexan-1-one] ?
Solution: 0.75
